The reader will find reported pIC50 values listed item by item below.
target: BCAT2 (Homo sapiens, UniProt O15382)
Sequence (O15382 28-392): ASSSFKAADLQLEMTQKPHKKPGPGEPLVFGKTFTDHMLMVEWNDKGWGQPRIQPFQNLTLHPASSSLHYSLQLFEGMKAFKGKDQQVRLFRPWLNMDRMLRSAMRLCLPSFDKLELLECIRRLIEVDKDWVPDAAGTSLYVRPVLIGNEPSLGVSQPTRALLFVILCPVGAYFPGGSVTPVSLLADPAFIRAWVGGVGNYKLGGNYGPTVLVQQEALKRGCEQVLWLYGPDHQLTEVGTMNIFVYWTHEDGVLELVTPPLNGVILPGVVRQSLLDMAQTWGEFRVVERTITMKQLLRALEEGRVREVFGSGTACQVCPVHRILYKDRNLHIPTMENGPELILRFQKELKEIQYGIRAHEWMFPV
test description: BCAT2 in vitro enzyme inhibition assay (hBCAT2, glutamate dehydrogenase/diaphorase/resazurin coupled fluorescence read)
Format: biochemical
settings: hBCAT2, 1 h preincubation at 25° C., one hour reaction; average where tested multiple times
Protocol: • 2×Buffer: 200 mM Tris pH 8.0, 300 mM NaCl, 0.1% BSA • 1.67×hBCAT2 Enzyme Mix: 0.33 μg/mL hBCAT2, 1× Buffer • 2.5×Substrate Mix: 460 µM L-leucine, 420 µM α-KetoGlutarate, 10 U/mL glutamate dehydrogenase, 10 mM NAD, […] diaphorase, […] Resazurin BCAT2 enzyme stock solution was diluted to prepare a 1.67×hBCAT2 Enzyme Mix. […] Reactions were quenched after one hour by the addition of 25 μL of 6% SDS and reaction progress was measured via fluorescence read (Ex 540/Em 590). […]
pIC50: −log10 of the molar value.
measured endpoint: pIC50

INSERT INTO assay_data (compound, value) VALUES
  ('Cc1coc(-c2cc3c(cn2)nc(-c2ccccc2F)n3[C@@H]2CCC[C@H](NC(=O)c3cc(F)ccc3F)[C@H]2O)n1', '> 7.00'),
  ('O=C(N[C@H]1CCC[C@@H](n2c(-c3ccccc3F)nc3cnc(-c4nc[nH]n4)cc32)C1)c1cc(Cl)ccc1OC1CC1', '> 7.00'),
  ('O=C1c2cc(F)ccc2OCN1[C@H]1CCC[C@@H](n2c(-c3ccccc3OC(F)F)nc3cnc(-c4nc[nH]n4)cc32)C1', '> 7.00'),
  ('CC(C)(O)COc1ccc(Cl)cc1C(=O)N[C@H]1CCC[C@@H](n2c(-c3ccccc3F)nc3cnc(-n4nccn4)cc32)C1', '> 7.00'),
  ('O=C(N[C@H]1CCC[C@@H](n2c(-c3ccccc3F)nc3cnc(-c4nc[nH]n4)cc32)C1)c1cc(Cl)cc2ccoc12', '> 7.00'),
  ('CN1C[C@H](NC(=O)c2cc(Cl)ccc2F)C[C@H](n2c(-c3ccccc3F)nc3cnc(-c4nc[nH]n4)cc32)C1', '> 7.00'),
  ('O=C(N[C@H]1CCC[C@@H](n2c(-c3ccccc3F)nc3cnc(-c4nc[nH]n4)cc32)C1)c1c(F)cccc1F', '> 7.00'),
  ('CC(C)(C#N)Cc1nc2cnc(-c3nc[nH]n3)cc2n1[C@@H]1CCC[C@H](NC(=O)c2cc(Cl)ccn2)C1', '6.00 to 6.30'),
  ('O=C(N[C@H]1CCC[C@@H](n2c(-c3ccccc3F)nc3cnc(-c4nc[nH]n4)cc32)C1)c1cc(Cl)ccc1OC(F)F', '> 7.00'),
  ('CN1C[C@H](NC(=O)c2cc(Cl)ccn2)C[C@H](n2c(-c3ncccc3F)nc3cnc(-c4nc[nH]n4)cc32)C1', '> 7.00'),
  ('CC(Oc1ccccc1-c1nc2cnc(-c3nc[nH]n3)cc2n1[C@@H]1CCC[C@H](NC(=O)c2cc(Cl)ccn2)C1)C(F)(F)F (stereo partly shown) [Example 92]', '< 6.00'),
  ('CC(C)(Cc1nc2cnc(-c3nc[nH]n3)cc2n1[C@@H]1CCC[C@H](NC(=O)c2cc(Cl)ccn2)C1)C(N)=O', '< 6.00'),
  ('CN(C)CCOc1ccc(Cl)cc1C(=O)N[C@H]1CCC[C@@H](n2c(-c3ccccc3F)nc3cnc(-c4nc[nH]n4)cc32)C1', '> 7.00');
